This listing pairs compounds with measured log10(Ki).
System: UniProt P30542
Sequence (P30542 whole entry): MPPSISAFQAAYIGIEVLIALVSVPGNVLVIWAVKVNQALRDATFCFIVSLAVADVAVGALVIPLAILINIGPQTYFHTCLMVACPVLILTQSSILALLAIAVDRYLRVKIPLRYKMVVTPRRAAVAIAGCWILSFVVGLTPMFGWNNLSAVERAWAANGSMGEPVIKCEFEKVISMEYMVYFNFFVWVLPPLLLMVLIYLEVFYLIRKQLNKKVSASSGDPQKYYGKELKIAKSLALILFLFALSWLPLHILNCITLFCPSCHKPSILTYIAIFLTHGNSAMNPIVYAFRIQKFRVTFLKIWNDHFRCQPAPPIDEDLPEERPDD
Measurement Description: Displacement of [3H]CCPA from recombinant human adenosine A1 receptor expressed in CHO cell membranes after 3 hrs by microbeta scintillation counting
Values reflect log10 of reported Ki (nM).

Check out these entries, answers already filled in.
| Compound | System | log10(Ki) |
| --- | --- | --- |
| CCn1nnc([C@H]2O[C@@H](n3cnc4c(NC5CC5)ncnc43)[C@H](O)[C@@H]2O)n1 | UniProt P30542 | -0.06 |
| CCn1nnc([C@H]2O[C@@H](n3cnc4c(NCc5ccc(Cl)cc5F)ncnc43)C(O)C2O)n1 (single isomer, unassigned) | UniProt P30542 | 0.63 |
| CCn1nnc([C@H]2O[C@@H](n3cnc4c(NCc5cccc(Br)c5)nc(Cl)nc43)[C@H](O)[C@@H]2O)n1 | UniProt P30542 | 0.25 |
| CCn1nnc([C@H]2O[C@@H](n3cnc4c(NCc5ccc(Cl)cc5F)nc(Cl)nc43)[C@H](O)[C@@H]2O)n1 | UniProt P30542 | 1.25 |

Item CCn1nnc([C@H]2O[C@@H](n3cnc4c(NCc5ccco5)nc(Cl)nc43)[C@H](O)[C@@H]2O)n1 ; assay system UniProt P30542; log10(Ki) reported as 0.88

Item CCn1nnc([C@H]2O[C@@H](n3cnc4c(NCc5ccco5)ncnc43)C(O)C2O)n1 (single isomer, unassigned) ; assay system UniProt P30542; log10(Ki) reported as 1.03

Item CCn1nnc([C@H]2O[C@@H](n3cnc4c(NCc5cccs5)ncnc43)C(O)C2O)n1 (single isomer, unassigned) ; assay system UniProt P30542; log10(Ki) reported as 0.55

###

System: Adenosine receptor A1 (Homo sapiens)
Measurement Description: Agonist activity at recombinant human adenosine A1 receptor expressed in CHO cell membranes assessed as inhibition of forskolin-stimulated adenylyl cyclase activity after 10 mins in presence of [alpha-32P]ATP
Measurement Name: EC50 (nM)
Please respond with the number in nM and leave the unit unwritten.

Check out these entries, answers already filled in.
| Compound | EC50, nM |
| --- | --- |
| CCn1nnc([C@H]2O[C@@H](n3cnc4c(NCc5cccc(Cl)c5)nc(Cl)nc43)[C@H](O)[C@@H]2O)n1 | 116 |
| CCn1nnc([C@H]2O[C@@H](n3cnc4c(NC5CC5)ncnc43)[C@H](O)[C@@H]2O)n1 | 7.66 |
| CCn1nnc([C@H]2O[C@@H](n3cnc4c(NCC5CC5)nc(Cl)nc43)[C@H](O)[C@@H]2O)n1 | 7.21 |
| CCn1nnc([C@H]2O[C@@H](n3cnc4c(NCc5ccc(Cl)cc5F)nc(Cl)nc43)[C@H](O)[C@@H]2O)n1 | 539 |
| CCn1nnc([C@H]2O[C@@H](n3cnc4c(NCc5cccc(Cl)c5)ncnc43)[C@H](O)[C@@H]2O)n1 | 58.5 |
| CCn1nnc([C@H]2O[C@@H](n3cnc4c(NCc5ccco5)ncnc43)C(O)C2O)n1 (single isomer, unassigned) | 552 |
| CCn1nnc([C@H]2O[C@@H](n3cnc4c(NCc5cccc(F)c5)ncnc43)C(O)C2O)n1 (single isomer, unassigned) | 147 |
| CCn1nnc([C@H]2O[C@@H](n3cnc4c(NCc5cccc(I)c5)ncnc43)C(O)C2O)n1 (single isomer, unassigned) | 27.4 |

Item CCn1nnc([C@H]2O[C@@H](n3cnc4c(NCc5cccs5)nc(Cl)nc43)[C@H](O)[C@@H]2O)n1 ; assay system Adenosine receptor A1 (Homo sapiens); EC50 reported as 222

Item CCn1nnc([C@H]2O[C@@H](n3cnc4c(NCc5ccc(Cl)cc5F)ncnc43)C(O)C2O)n1 (single isomer, unassigned) ; assay system Adenosine receptor A1 (Homo sapiens); EC50 reported as 230

Item CCn1nnc([C@H]2O[C@@H](n3cnc4c(NC5CC5)nc(Cl)nc43)[C@H](O)[C@@H]2O)n1 ; assay system Adenosine receptor A1 (Homo sapiens); EC50 reported as 7.21

Item CCn1nnc([C@H]2O[C@@H](n3cnc4c(NCc5cccc(Br)c5)nc(Cl)nc43)[C@H](O)[C@@H]2O)n1 ; assay system Adenosine receptor A1 (Homo sapiens); EC50 reported as 72.8

Item CCn1nnc([C@H]2O[C@@H](n3cnc4c(NCC5CC5)ncnc43)[C@H](O)[C@@H]2O)n1 ; assay system Adenosine receptor A1 (Homo sapiens); EC50 reported as 7.73

Item CCn1nnc([C@H]2O[C@@H](n3cnc4c(NCc5cccc(Br)c5)ncnc43)C(O)C2O)n1 (single isomer, unassigned) ; assay system Adenosine receptor A1 (Homo sapiens); EC50 reported as 45.1

Item CCn1nnc([C@H]2O[C@@H](n3cnc4c(NCc5ccco5)nc(Cl)nc43)[C@H](O)[C@@H]2O)n1 ; assay system Adenosine receptor A1 (Homo sapiens); EC50 reported as 341

Item CCn1nnc([C@H]2O[C@@H](n3cnc4c(NCc5cccc(F)c5)nc(Cl)nc43)[C@H](O)[C@@H]2O)n1 ; assay system Adenosine receptor A1 (Homo sapiens); EC50 reported as 239

Item CCn1nnc([C@H]2O[C@@H](n3cnc4c(NCc5cccs5)ncnc43)C(O)C2O)n1 (single isomer, unassigned) ; assay system Adenosine receptor A1 (Homo sapiens); EC50 reported as 208

###

System: Adenosine receptor A3 (Homo sapiens, UniProt P0DMS8)
Sequence (P0DMS8 whole entry): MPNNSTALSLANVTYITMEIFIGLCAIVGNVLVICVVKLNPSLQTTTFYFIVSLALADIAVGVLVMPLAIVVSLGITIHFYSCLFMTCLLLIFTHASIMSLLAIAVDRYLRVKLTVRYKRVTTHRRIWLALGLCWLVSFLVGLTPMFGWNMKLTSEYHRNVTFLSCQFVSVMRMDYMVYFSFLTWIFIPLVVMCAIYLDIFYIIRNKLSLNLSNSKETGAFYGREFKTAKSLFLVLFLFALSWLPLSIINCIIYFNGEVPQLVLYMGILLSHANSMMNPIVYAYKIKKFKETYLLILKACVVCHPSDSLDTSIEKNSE
Measurement Description: Displacement of [3H]HEMADO from recombinant human adenosine […] receptor expressed in CHO cell membranes after 3 hrs by microbeta scintillation counting
Measurement Name: pKi
The meaning of pKi here: minus log10 of the concentration in molar units.

Check out these entries, answers already filled in.
| Compound | Measurement Name | Val |
| --- | --- | --- |
| CCn1nnc([C@H]2O[C@@H](n3cnc4c(NCc5cccc(Br)c5)nc(Cl)nc43)[C@H](O)[C@@H]2O)n1 | pKi | 9.46 |
| CCn1nnc([C@H]2O[C@@H](n3cnc4c(NCc5cccc(Cl)c5)ncnc43)[C@H](O)[C@@H]2O)n1 | pKi | 9.41 |
| CCn1nnc([C@H]2O[C@@H](n3cnc4c(NCc5cccs5)ncnc43)C(O)C2O)n1 (single isomer, unassigned) | pKi | 8.63 |
| CCn1nnc([C@H]2O[C@@H](n3cnc4c(NCc5cccc(Br)c5)ncnc43)C(O)C2O)n1 (single isomer, unassigned) | pKi | 9.41 |

Briefly, pKi measured for CCn1nnc([C@H]2O[C@@H](n3cnc4c(NCc5cccc(Cl)c5)nc(Cl)nc43)[C@H](O)[C@@H]2O)n1 : 9.41

###

System: Adenosine receptors; A1 & A3 (Homo sapiens) (UniProt P30542+P0DMS8)
Measurement Description: Selectivity ratio of Ki for recombinant human adenosine A3 receptor expressed in CHO cell membranes to Ki for recombinant human adenosine A1 receptor expressed in CHO cell membranes
Assay type: cell-based
Measurement Name: Ratio Ki
// print number alone

| Molecule | Ratio Ki |
| --- | --- |
| CCn1nnc([C@H]2O[C@@H](n3cnc4c(NCc5cccc(Cl)c5)nc(Cl)nc43)[C@H](O)[C@@H]2O)n1 | 0.14 |
| CCn1nnc([C@H]2O[C@@H](n3cnc4c(NC5CC5)ncnc43)[C@H](O)[C@@H]2O)n1 | 1 |
| CCn1nnc([C@H]2O[C@@H](n3cnc4c(NCc5ccc(Cl)cc5F)nc(Cl)nc43)[C@H](O)[C@@H]2O)n1 | 0.29 |
| CCn1nnc([C@H]2O[C@@H](n3cnc4c(NCc5cccc(F)c5)ncnc43)C(O)C2O)n1 (single isomer, unassigned) | 0.32 |
| CCn1nnc([C@H]2O[C@@H](n3cnc4c(NCc5cccs5)nc(Cl)nc43)[C@H](O)[C@@H]2O)n1 | 0.26 |
| CCn1nnc([C@H]2O[C@@H](n3cnc4c(NCC5CC5)nc(Cl)nc43)[C@H](O)[C@@H]2O)n1 | 0.66 |
| CCn1nnc([C@H]2O[C@@H](n3cnc4c(NCc5ccc(Cl)cc5F)ncnc43)C(O)C2O)n1 (single isomer, unassigned) | 1.09 |
| CCn1nnc([C@H]2O[C@@H](n3cnc4c(NCc5cccc(I)c5)ncnc43)C(O)C2O)n1 (single isomer, unassigned) | 0.69 |

Briefly, Ratio Ki measured for CCn1nnc([C@H]2O[C@@H](n3cnc4c(NCc5ccco5)ncnc43)C(O)C2O)n1 (single isomer, unassigned) : 0.45

Briefly, Ratio Ki measured for CCn1nnc([C@H]2O[C@@H](n3cnc4c(NC5CC5)nc(Cl)nc43)[C@H](O)[C@@H]2O)n1 : 0.86

Briefly, Ratio Ki measured for CCn1nnc([C@H]2O[C@@H](n3cnc4c(NCc5cccc(F)c5)nc(Cl)nc43)[C@H](O)[C@@H]2O)n1 : 0.13

Briefly, Ratio Ki measured for CCn1nnc([C@H]2O[C@@H](n3cnc4c(NCc5cccc(Br)c5)nc(Cl)nc43)[C@H](O)[C@@H]2O)n1 : 0.19

Briefly, Ratio Ki measured for CCn1nnc([C@H]2O[C@@H](n3cnc4c(NCc5ccco5)nc(Cl)nc43)[C@H](O)[C@@H]2O)n1 : 0.17
